Target: T1, human CD30 (commercial, conjugated to digoxigenin) (human, UniProt P28908 19-379, limits assumed, conjugated to digoxigenin (DIG))
T1 sequence (looked up): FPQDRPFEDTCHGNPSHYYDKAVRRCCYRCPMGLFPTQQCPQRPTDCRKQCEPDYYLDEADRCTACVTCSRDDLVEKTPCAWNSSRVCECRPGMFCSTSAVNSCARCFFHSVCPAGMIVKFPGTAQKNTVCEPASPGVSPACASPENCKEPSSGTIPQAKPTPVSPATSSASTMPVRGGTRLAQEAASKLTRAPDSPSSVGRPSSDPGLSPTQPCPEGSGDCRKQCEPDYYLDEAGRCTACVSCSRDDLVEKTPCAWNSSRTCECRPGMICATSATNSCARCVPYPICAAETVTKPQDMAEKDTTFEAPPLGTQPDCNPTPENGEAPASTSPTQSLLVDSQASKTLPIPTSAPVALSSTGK
Assay: AlphaScreen competition
readout_kind: Fold IC50 vs H3/L3 (fold)
Express the result in fold but write the number alone.

Query AC10 H3.42/L3 (antibody, IgG1, name in Kabat numbering, V domains shown) VH: QIQLVQSGPEVKKPGASVKVSCKASGYTFTDYYITWVRQAPGQGLEWMGWIYPGSGNTKYNEKFQGRFVFSLDTSASTAYLQISSLKAEDTAVYFCANYGNYWFAYWGQGTLVTVSS VL: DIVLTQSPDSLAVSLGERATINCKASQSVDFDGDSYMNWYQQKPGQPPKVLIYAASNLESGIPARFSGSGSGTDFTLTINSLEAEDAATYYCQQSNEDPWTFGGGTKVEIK yields Fold IC50 vs H3/L3 of 0.66

Query AC10 H3.54/L3 (antibody, IgG1, name in Kabat numbering, V domains shown) VH: QIQLVQSGPEVKKPGASVKVSCKASGYTFTDYYITWVRQAPGQGLEWMGWIYPGSGNTKYNEKFQGRFVFSVDTSASTAYLQISSLKAEDTAVYFCARYGNYWFAYWGQGTLVTVSS VL: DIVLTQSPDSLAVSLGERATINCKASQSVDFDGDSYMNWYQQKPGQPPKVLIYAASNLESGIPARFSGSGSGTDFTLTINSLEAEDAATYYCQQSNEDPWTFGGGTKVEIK yields Fold IC50 vs H3/L3 of 0

Query AC10 H3.1/L3 (antibody, IgG1, name in Kabat numbering, V domains shown) VH: EIQLVQSGPEVKKPGASVKVSCKASGYTFTDYYITWVRQAPGQGLEWMGWIYPGSGNTKYNEKFQGRFVFSVDTSASTAYLQISSLKAEDTAVYFCANYGNYWFAYWGQGTLVTVSS VL: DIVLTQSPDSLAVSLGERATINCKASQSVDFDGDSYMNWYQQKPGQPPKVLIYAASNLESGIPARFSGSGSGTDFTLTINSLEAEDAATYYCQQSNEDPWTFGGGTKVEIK yields Fold IC50 vs H3/L3 of 1

Query AC10 H3.19/L3 (antibody, IgG1, name in Kabat numbering, V domains shown) VH: QIQLVQSGPEVKKPGASVKVSCKASGYTFTDYYISWVRQAPGQGLEWMGWIYPGSGNTKYNEKFQGRFVFSVDTSASTAYLQISSLKAEDTAVYFCANYGNYWFAYWGQGTLVTVSS VL: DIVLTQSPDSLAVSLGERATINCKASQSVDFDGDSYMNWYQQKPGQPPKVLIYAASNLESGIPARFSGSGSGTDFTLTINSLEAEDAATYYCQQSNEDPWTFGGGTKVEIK yields Fold IC50 vs H3/L3 of 1.11

Query AC10 H3.9/L3 (antibody, IgG1, name in Kabat numbering, V domains shown) VH: QIQLVQSGPEVKKPGASVKVSCKASGYTFTSYYITWVRQAPGQGLEWMGWIYPGSGNTKYNEKFQGRFVFSVDTSASTAYLQISSLKAEDTAVYFCANYGNYWFAYWGQGTLVTVSS VL: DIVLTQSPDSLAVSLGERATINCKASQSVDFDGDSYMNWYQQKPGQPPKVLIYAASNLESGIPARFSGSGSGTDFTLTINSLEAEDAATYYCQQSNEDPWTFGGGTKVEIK yields Fold IC50 vs H3/L3 of 1.65
